Taken from ChEMBL document CHEMBL1155988.

- Test system: Staphylococcus aureus
- assay_summary: Antibacterial activity against Staphylococcus aureus 29213 by microdilution method
- Assay type: functional
measurement_name: MIC (µg/mL)
Reply with just the number (in µg/mL).

Provide one value: measured MIC of CN(Cc1cc2ccccc2n1C)C(=O)/C=C/c1cnc2c(c1)CC1(CCNCC1)C(=O)N2
0.5

Provide one value: measured MIC of CCCOc1c(CN(C)C(=O)/C=C/c2cnc3c(c2)CC2(CCNCC2)C(=O)N3)cccc1OC
0.125

Provide one value: measured MIC of CCCOc1c(CN(C)C(=O)/C=C/c2cnc3c(c2)CC2(CCN(C)CC2)C(=O)N3)cccc1OC
0.031

Provide one value: measured MIC of Cc1c(CN(C)C(=O)/C=C/c2cnc3c(c2)CCC(=O)N3)sc2ccccc12
0.125

Provide one value: measured MIC of Cc1c(CN(C)C(=O)/C=C/c2cnc3c(c2)CC2(CCNCC2)C(=O)N3)oc2ccccc12
0.031

---

- Tested on: Escherichia coli
- assay_summary: Antibacterial activity against Escherichia coli AG100A […] by microdilution method
- Assay type: functional
Assign MIC to each entry below.
Reply with just the number (in µg/mL).

Provide one value: measured MIC of CN(Cc1cc2ccccc2n1C)C(=O)/C=C/c1cnc2c(c1)CC1(CCNCC1)C(=O)N2
0.5

Provide one value: measured MIC of CCCOc1c(CN(C)C(=O)/C=C/c2cnc3c(c2)CC2(CCN(C)CC2)C(=O)N3)cccc1OC
4

Provide one value: measured MIC of Cc1c(CN(C)C(=O)/C=C/c2cnc3c(c2)CC2(CCN(C)CC2)C(=O)N3)oc2ccccc12
0.25

Provide one value: measured MIC of Cc1c(CN(C)C(=O)/C=C/c2cnc3c(c2)CCC(=O)N3)sc2ccccc12
4

Provide one value: measured MIC of CCCOc1c(CN(C)C(=O)/C=C/c2cnc3c(c2)CC2(CCNCC2)C(=O)N3)cccc1OC
2

---

Protein target, amino acids: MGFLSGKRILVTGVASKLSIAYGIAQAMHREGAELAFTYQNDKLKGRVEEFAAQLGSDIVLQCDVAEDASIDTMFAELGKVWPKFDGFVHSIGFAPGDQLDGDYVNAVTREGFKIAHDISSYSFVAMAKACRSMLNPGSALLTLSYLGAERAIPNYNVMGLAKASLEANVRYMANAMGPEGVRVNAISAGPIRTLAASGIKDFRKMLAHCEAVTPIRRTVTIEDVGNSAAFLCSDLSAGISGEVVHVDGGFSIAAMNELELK
measurement_name: pIC50
// field semantics: pIC50 = negative decimal log of concentration (mol/L)

Provide one value: measured pIC50 of CN(Cc1cc2ccccc2n1C)C(=O)/C=C/c1cnc2c(c1)CCC(=O)N2
6.86

Provide one value: measured pIC50 of Cc1c(CN(C)C(=O)/C=C/c2cnc3c(c2)CN(CCN2CCOCC2)C(=O)N3)sc2ccccc12
8.15

Provide one value: measured pIC50 of Cc1c(CN(C)C(=O)/C=C/c2cnc3c(c2)CC2(CCN(C)CC2)C(=O)N3)sc2ccccc12
8.62

Provide one value: measured pIC50 of CN(Cc1cc2ccccc2n1C)C(=O)/C=C/c1cnc2c(c1)CC1(CCNCC1)C(=O)N2
7.77

Provide one value: measured pIC50 of CCCOc1c(CN(C)C(=O)/C=C/c2cnc3c(c2)CC2(CCN(C)CC2)C(=O)N3)cccc1OC
7.26

Provide one value: measured pIC50 of Cc1c(CN(C)C(=O)/C=C/c2cnc3c(c2)CC2(CCNCC2)C(=O)N3)sc2ccccc12
9.40

Provide one value: measured pIC50 of Cc1c(CN(C)C(=O)/C=C/c2cnc3c(c2)CC2(CCNCC2)C(=O)N3)oc2ccccc12
9.15

Provide one value: measured pIC50 of Cc1c(CN(C)C(=O)/C=C/c2cnc3c(c2)CC2(CCN(C)CC2)C(=O)N3)sc2ccc(F)cc12
7.62

Provide one value: measured pIC50 of Cc1c(CN(C)C(=O)/C=C/c2cnc3c(c2)CC2(CCN(C)CC2)C(=O)N3)oc2ccccc12
8.74

---

Assign pIC50 to each entry below.
- assayed_system: Enoyl-[acyl-carrier-protein] reductase [NADPH] FabI (Staphylococcus aureus, UniProt Q6GI75)
- Sequence (Q6GI75 whole entry): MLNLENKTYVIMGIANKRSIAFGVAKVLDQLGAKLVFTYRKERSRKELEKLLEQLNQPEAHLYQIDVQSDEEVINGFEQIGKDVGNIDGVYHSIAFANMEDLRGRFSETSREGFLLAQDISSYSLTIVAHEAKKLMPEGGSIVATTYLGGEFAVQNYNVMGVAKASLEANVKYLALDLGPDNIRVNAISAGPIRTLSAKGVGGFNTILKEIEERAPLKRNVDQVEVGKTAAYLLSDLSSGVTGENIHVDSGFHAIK
// field semantics: pIC50 = negative decimal log of concentration (mol/L)

Provide one value: measured pIC50 of Cc1c(CN(C)C(=O)/C=C/c2cnc3c(c2)CC2(CCNCC2)C(=O)N3)oc2ccccc12
7.31

Provide one value: measured pIC50 of CCCOc1c(CN(C)C(=O)/C=C/c2cnc3c(c2)CC2(CCNCC2)C(=O)N3)cccc1OC
7.15

Provide one value: measured pIC50 of Cc1c(CN(C)C(=O)/C=C/c2cnc3c(c2)CC2(CCN(C)CC2)C(=O)N3)sc2ccc(F)cc12
7.55

Provide one value: measured pIC50 of Cc1c(CN(C)C(=O)/C=C/c2cnc3c(c2)CC2(CCN(C)CC2)C(=O)N3)sc2ccccc12
7.85

Provide one value: measured pIC50 of Cc1c(CN(C)C(=O)/C=C/c2cnc3c(c2)CCC(=O)N3)sc2ccccc12
7.52

Provide one value: measured pIC50 of Cc1c(CN(C)C(=O)/C=C/c2cnc3c(c2)CC2(CCN(C)CC2)C(=O)N3)oc2ccccc12
7.70

Provide one value: measured pIC50 of CN(Cc1cc2ccccc2n1C)C(=O)/C=C/c1cnc2c(c1)CC1(CCNCC1)C(=O)N2
6.88

Provide one value: measured pIC50 of CCCOc1c(CN(C)C(=O)/C=C/c2cnc3c(c2)CC2(CCN(C)CC2)C(=O)N3)cccc1OC
7.59

Provide one value: measured pIC50 of Cc1c(CN(C)C(=O)/C=C/c2cnc3c(c2)CN(CCN2CCOCC2)C(=O)N3)sc2ccccc12
7.59

Provide one value: measured pIC50 of Cc1c(CN(C)C(=O)/C=C/c2cnc3c(c2)CC2(CCNCC2)C(=O)N3)sc2ccccc12
7.32

---

Assign solubility to each entry below.
- assay_summary: Aqueous solubility at pH 7.4
- Format: physicochemical
Reply with just the number (in µg/mL).

Provide one value: measured solubility of Cc1c(CN(C)C(=O)/C=C/c2cnc3c(c2)CC2(CCN(C)CC2)C(=O)N3)sc2ccccc12
110

Provide one value: measured solubility of Cc1c(CN(C)C(=O)/C=C/c2cnc3c(c2)CC2(CCNCC2)C(=O)N3)oc2ccccc12
100

Provide one value: measured solubility of Cc1c(CN(C)C(=O)/C=C/c2cnc3c(c2)CC2(CCN(C)CC2)C(=O)N3)sc2ccc(F)cc12
110

Provide one value: measured solubility of CCCOc1c(CN(C)C(=O)/C=C/c2cnc3c(c2)CC2(CCN(C)CC2)C(=O)N3)cccc1OC
1000

Provide one value: measured solubility of CN(Cc1cc2ccccc2n1C)C(=O)/C=C/c1cnc2c(c1)CCC(=O)N2
5.8

Provide one value: measured solubility of Cc1c(CN(C)C(=O)/C=C/c2cnc3c(c2)CN(CCN2CCOCC2)C(=O)N3)sc2ccccc12
6.1

Provide one value: measured solubility of CCCOc1c(CN(C)C(=O)/C=C/c2cnc3c(c2)CC2(CCNCC2)C(=O)N3)cccc1OC
520

Provide one value: measured solubility of Cc1c(CN(C)C(=O)/C=C/c2cnc3c(c2)CC2(CCNCC2)C(=O)N3)sc2ccccc12
4.8

Provide one value: measured solubility of Cc1c(CN(C)C(=O)/C=C/c2cnc3c(c2)CC2(CCN(C)CC2)C(=O)N3)oc2ccccc12
43

---

- assay_summary: Aqueous solubility at pH 4.0
- Type: physicochemical
measurement_name: log10 solubility (log10 of the value in µg/mL)
In our notation, the value equals log10 of solubility in µg/mL.

Provide one value: measured log10 solubility of Cc1c(CN(C)C(=O)/C=C/c2cnc3c(c2)CC2(CCNCC2)C(=O)N3)oc2ccccc12
3.18

Provide one value: measured log10 solubility of CCCOc1c(CN(C)C(=O)/C=C/c2cnc3c(c2)CC2(CCN(C)CC2)C(=O)N3)cccc1OC
3.18

Provide one value: measured log10 solubility of Cc1c(CN(C)C(=O)/C=C/c2cnc3c(c2)CC2(CCN(C)CC2)C(=O)N3)sc2ccc(F)cc12
2.90

Provide one value: measured log10 solubility of CCCOc1c(CN(C)C(=O)/C=C/c2cnc3c(c2)CC2(CCNCC2)C(=O)N3)cccc1OC
2.85

Provide one value: measured log10 solubility of Cc1c(CN(C)C(=O)/C=C/c2cnc3c(c2)CC2(CCN(C)CC2)C(=O)N3)sc2ccccc12
2.56

Provide one value: measured log10 solubility of Cc1c(CN(C)C(=O)/C=C/c2cnc3c(c2)CC2(CCNCC2)C(=O)N3)sc2ccccc12
1.34

Provide one value: measured log10 solubility of Cc1c(CN(C)C(=O)/C=C/c2cnc3c(c2)CC2(CCN(C)CC2)C(=O)N3)oc2ccccc12
1.92
